- Test system: Escherichia coli TOP10
- METHOD_SUMMARY: shrunken log2 fold change of peptide-encoding DNA abundance (4.5 h post-induction vs induction); higher = less antimicrobial activity (less host growth inhibition)
- CONDITION_DETAILS: time post-induction: 4.5 h; library: site-saturation at positions 5, 18, 19, 20
ENDPOINT_NAME: shrunken log2 fold change
# print the numeric value only

Here's what some known entries look like.
| CHAIN_SEQUENCE | TARGET_UNDER_TEST | ENDPOINT_NAME | RECORDED_MEASUREMENT |
| --- | --- | --- | --- |
| RRIRVRPPRLPRPRPRPYNGPRP | Escherichia coli TOP10 | shrunken log2 fold change | -0.514 |
| RRIRHRPPRLPRPRPRPQEWPRP | Escherichia coli TOP10 | shrunken log2 fold change | -0.119 |
| RRIRVRPPRLPRPRPRPTVMPRP | Escherichia coli TOP10 | shrunken log2 fold change | 0.126 |
| RRIRWRPPRLPRPRPRPRWRPRP | Escherichia coli TOP10 | shrunken log2 fold change | 0.552 |

Checklist item: shrunken log2 fold change tested on Escherichia coli TOP10, entry RRIRFRPPRLPRPRPRPCEQPRP , value?
-0.00534

Checklist item: shrunken log2 fold change tested on Escherichia coli TOP10, entry RRIRFRPPRLPRPRPRPVHKPRP , value?
-0.142

Checklist item: shrunken log2 fold change tested on Escherichia coli TOP10, entry RRIRGRPPRLPRPRPRPPFDPRP , value?
0.835

Checklist item: shrunken log2 fold change tested on Escherichia coli TOP10, entry RRIRWRPPRLPRPRPRPLHHPRP , value?
-0.0749

Checklist item: shrunken log2 fold change tested on Escherichia coli TOP10, entry RRIRSRPPRLPRPRPRPTVNPRP , value?
-0.477

Checklist item: shrunken log2 fold change tested on Escherichia coli TOP10, entry RRIRVRPPRLPRPRPRPLFCPRP , value?
-0.103

----------
- Tested on: Escherichia coli TOP10
- METHOD_SUMMARY: shrunken log2 fold change of peptide-encoding DNA abundance (4.5 h post-induction vs induction); higher = less antimicrobial activity (less host growth inhibition)
- CONDITION_DETAILS: time post-induction: 4.5 h; library: site-saturation at positions 5, 18, 19, 20
Some sequences, each annotated with its measured shrunken log2 fold change.

Here's what some known entries look like.
| CHAIN_SEQUENCE | shrunken log2 fold change |
| --- | --- |
| RRIRCRPPRLPRPRPRPQFNPRP | -0.98 |
| RRIRIRPPRLPRPRPRPCVCPRP | -0.0463 |
| RRIRTRPPRLPRPRPRPANNPRP | -0.736 |
| RRIRTRPPRLPRPRPRPMSTPRP | -0.0153 |

Look up shrunken log2 fold change: RRIRRRPPRLPRPRPRPGPFPRP
0.162

Look up shrunken log2 fold change: RRIRVRPPRLPRPRPRPHLFPRP
0.461

Look up shrunken log2 fold change: RRIRVRPPRLPRPRPRPSPHPRP
-0.571

Look up shrunken log2 fold change: RRIRYRPPRLPRPRPRPEMQPRP
0.057

Look up shrunken log2 fold change: RRIRWRPPRLPRPRPRPAYDPRP
0.126

----------
Some sequences, each annotated with its measured shrunken log2 fold change.
- Test system: Escherichia coli TOP10
- METHOD_SUMMARY: shrunken log2 fold change of peptide-encoding DNA abundance (4.5 h post-induction vs induction); higher = less antimicrobial activity (less host growth inhibition)
- CONDITION_DETAILS: time post-induction: 4.5 h; library: site-saturation at positions 5, 18, 19, 20
# print the numeric value only

| CHAIN_SEQUENCE | shrunken log2 fold change |
| --- | --- |
| RRIRDRPPRLPRPRPRPHLIPRP | -0.0328 |
| RRIRPRPPRLPRPRPRPGWCPRP | 0.072 |
| RRIRNRPPRLPRPRPRPCGVPRP | -0.00664 |
| RRIRLRPPRLPRPRPRPQIIPRP | 0.0457 |
| RRIRLRPPRLPRPRPRPHVFPRP | -0.0592 |

Look up shrunken log2 fold change: RRIRNRPPRLPRPRPRPDKDPRP
-0.253

Look up shrunken log2 fold change: RRIRRRPPRLPRPRPRPVGSPRP
0.432

Look up shrunken log2 fold change: RRIRGRPPRLPRPRPRPDCYPRP
0.191

----------
- Test system: Escherichia coli TOP10
- METHOD_SUMMARY: shrunken log2 fold change of peptide-encoding DNA abundance (4.5 h post-induction vs induction); higher = less antimicrobial activity (less host growth inhibition)
- CONDITION_DETAILS: time post-induction: 4.5 h; library: site-saturation at positions 5, 18, 19, 20
rule met means recorded shrunken log2 fold change is 0.02 or above; rule not met means it is below 0.02.

# count of solved cases: 4
| CHAIN_SEQUENCE | GROUP_LABEL |
| --- | --- |
| RRIRGRPPRLPRPRPRPFTYPRP | rule met |
| RRIRQRPPRLPRPRPRPRMVPRP | rule met |
| RRIRNRPPRLPRPRPRPNIGPRP | rule not met |
| RRIRWRPPRLPRPRPRPRMIPRP | rule met |

Hello, I need to know if RRIRCRPPRLPRPRPRPFEKPRP has measured shrunken log2 fold change not below 0.02. Thanks!
rule not met

Hello, I need to know if RRIRPRPPRLPRPRPRPHDLPRP has measured shrunken log2 fold change not below 0.02. Thanks!
rule met

----------
Some sequences, each annotated with its measured shrunken log2 fold change.
- Tested on: Escherichia coli TOP10
- METHOD_SUMMARY: shrunken log2 fold change of peptide-encoding DNA abundance (4.5 h post-induction vs induction); higher = less antimicrobial activity (less host growth inhibition)
- CONDITION_DETAILS: time post-induction: 4.5 h; library: site-saturation at positions 5, 18, 19, 20
# print the numeric value only

Here's what some known entries look like.
| CHAIN_SEQUENCE | shrunken log2 fold change |
| --- | --- |
| RRIRYRPPRLPRPRPRPEMRPRP | 0.0856 |
| RRIRVRPPRLPRPRPRPLSAPRP | -0.0281 |
| RRIRRRPPRLPRPRPRPQISPRP | -0.0603 |

Look up shrunken log2 fold change: RRIRKRPPRLPRPRPRPLVIPRP
-0.0927

Look up shrunken log2 fold change: RRIRGRPPRLPRPRPRPYTIPRP
0.187

Look up shrunken log2 fold change: RRIRERPPRLPRPRPRPMAWPRP
0.151

Look up shrunken log2 fold change: RRIRPRPPRLPRPRPRPEKTPRP
0.037

Look up shrunken log2 fold change: RRIRVRPPRLPRPRPRPRGAPRP
0.567

Look up shrunken log2 fold change: RRIRIRPPRLPRPRPRPKLQPRP
0.173

Look up shrunken log2 fold change: RRIRGRPPRLPRPRPRPNAYPRP
0.426

Look up shrunken log2 fold change: RRIRVRPPRLPRPRPRPQNDPRP
-0.292

----------
- Test system: Escherichia coli TOP10
- METHOD_SUMMARY: shrunken log2 fold change of peptide-encoding DNA abundance (4.5 h post-induction vs induction); higher = less antimicrobial activity (less host growth inhibition)
- CONDITION_DETAILS: time post-induction: 4.5 h; library: site-saturation at positions 5, 18, 19, 20
Yes means recorded shrunken log2 fold change is -0.08 or above; No means it is below -0.08.

Hello, I need to know if RRIRMRPPRLPRPRPRPKTQPRP has measured shrunken log2 fold change not below -0.08. Thanks!
Yes

Hello, I need to know if RRIRRRPPRLPRPRPRPNPCPRP has measured shrunken log2 fold change not below -0.08. Thanks!
Yes

Hello, I need to know if RRIRWRPPRLPRPRPRPLNIPRP has measured shrunken log2 fold change not below -0.08. Thanks!
No

Hello, I need to know if RRIRMRPPRLPRPRPRPCNPPRP has measured shrunken log2 fold change not below -0.08. Thanks!
Yes

Hello, I need to know if RRIRNRPPRLPRPRPRPVHCPRP has measured shrunken log2 fold change not below -0.08. Thanks!
No

Hello, I need to know if RRIRPRPPRLPRPRPRPPQWPRP has measured shrunken log2 fold change not below -0.08. Thanks!
Yes

Hello, I need to know if RRIRERPPRLPRPRPRPDNPPRP has measured shrunken log2 fold change not below -0.08. Thanks!
No

Hello, I need to know if RRIRHRPPRLPRPRPRPGMWPRP has measured shrunken log2 fold change not below -0.08. Thanks!
No

----------
Some sequences, each annotated with its measured shrunken log2 fold change.
- Test system: Escherichia coli TOP10
- METHOD_SUMMARY: shrunken log2 fold change of peptide-encoding DNA abundance (4.5 h post-induction vs induction); higher = less antimicrobial activity (less host growth inhibition)
- CONDITION_DETAILS: time post-induction: 4.5 h; library: site-saturation at positions 5, 18, 19, 20
# print the numeric value only

Checklist item: shrunken log2 fold change tested on Escherichia coli TOP10, entry RRIRIRPPRLPRPRPRPHDRPRP , value?
-0.289

Checklist item: shrunken log2 fold change tested on Escherichia coli TOP10, entry RRIRHRPPRLPRPRPRPITPPRP , value?
-0.538

Checklist item: shrunken log2 fold change tested on Escherichia coli TOP10, entry RRIRIRPPRLPRPRPRPMPFPRP , value?
0.0123

Checklist item: shrunken log2 fold change tested on Escherichia coli TOP10, entry RRIRHRPPRLPRPRPRPHMIPRP , value?
0.13

Checklist item: shrunken log2 fold change tested on Escherichia coli TOP10, entry RRIRQRPPRLPRPRPRPNHSPRP , value?
-0.762

Checklist item: shrunken log2 fold change tested on Escherichia coli TOP10, entry RRIRWRPPRLPRPRPRPLQGPRP , value?
-0.21

Checklist item: shrunken log2 fold change tested on Escherichia coli TOP10, entry RRIRARPPRLPRPRPRPRSEPRP , value?
0.42

Checklist item: shrunken log2 fold change tested on Escherichia coli TOP10, entry RRIRYRPPRLPRPRPRPFQDPRP , value?
-0.139

Checklist item: shrunken log2 fold change tested on Escherichia coli TOP10, entry RRIRFRPPRLPRPRPRPKQKPRP , value?;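 note: peptides expressed intracellularly from a pBAD plasmid library in pooled LB shake-flask culture, induced with 0.3% L-arabinose, DNA abundance read by NGS, three biological replicates, DESeq2 with apeglm shrinkage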
-0.00156
